- targetDesc: PKCβII (Homo sapiens)
- Sequence (P05771 2-673 isoform P05771-2): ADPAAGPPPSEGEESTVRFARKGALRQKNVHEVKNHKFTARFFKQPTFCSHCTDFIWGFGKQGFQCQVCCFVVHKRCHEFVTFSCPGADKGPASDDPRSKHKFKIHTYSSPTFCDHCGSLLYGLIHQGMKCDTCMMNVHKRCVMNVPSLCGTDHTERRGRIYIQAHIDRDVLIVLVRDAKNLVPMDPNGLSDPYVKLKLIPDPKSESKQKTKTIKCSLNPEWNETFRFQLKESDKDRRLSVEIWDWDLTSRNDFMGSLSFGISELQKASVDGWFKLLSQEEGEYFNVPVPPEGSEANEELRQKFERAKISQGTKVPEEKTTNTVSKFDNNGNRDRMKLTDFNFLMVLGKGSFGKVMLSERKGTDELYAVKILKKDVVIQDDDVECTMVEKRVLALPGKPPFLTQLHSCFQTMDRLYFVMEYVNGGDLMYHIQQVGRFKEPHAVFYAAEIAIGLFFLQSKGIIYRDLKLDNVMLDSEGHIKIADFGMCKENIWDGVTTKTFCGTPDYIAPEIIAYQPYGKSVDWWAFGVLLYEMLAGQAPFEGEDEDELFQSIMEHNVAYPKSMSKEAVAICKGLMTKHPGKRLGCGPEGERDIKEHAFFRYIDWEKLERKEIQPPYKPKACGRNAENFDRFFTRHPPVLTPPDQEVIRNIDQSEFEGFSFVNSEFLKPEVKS
endpointLabel: pKi
Note: pKi values are expressed as the negative base-10 logarithm of concentration in M.

Give measured pKi for CN(C)CCCn1cc(C2=C(c3c[nH]c4ccccc34)C(=O)NC2=O)c2ccccc21 [BIS I, bisindolylmaleimide I] (PKCβII (Homo sapiens)).
7.84
